- Test system: LOC_OS06G22820-cb001
- Sequence (as listed by the source): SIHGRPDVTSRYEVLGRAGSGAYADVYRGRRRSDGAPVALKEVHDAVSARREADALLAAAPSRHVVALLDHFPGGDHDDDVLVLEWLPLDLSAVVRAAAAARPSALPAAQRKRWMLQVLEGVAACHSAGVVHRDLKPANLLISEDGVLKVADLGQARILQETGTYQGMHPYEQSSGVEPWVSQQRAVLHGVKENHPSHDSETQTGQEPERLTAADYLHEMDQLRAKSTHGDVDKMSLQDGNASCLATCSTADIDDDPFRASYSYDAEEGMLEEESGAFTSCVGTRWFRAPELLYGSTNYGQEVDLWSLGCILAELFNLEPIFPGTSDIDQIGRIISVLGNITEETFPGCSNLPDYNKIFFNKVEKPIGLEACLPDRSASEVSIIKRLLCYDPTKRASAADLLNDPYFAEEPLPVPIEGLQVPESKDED
- PROCEDURE TEXT: thermal shift delta Tm vs DMSO control; higher = stronger stabilization (binding);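 also: purified Escherichia coli-expressed rice kinase domain construct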
- EXPERIMENTAL CONDITIONS: 12.5 µM; protein concentration 2 µM
Think of 0.5 °C as a floor: if thermal shift delta Tm stands on it or above, it is 1; beneath it, -1.

Has Cc1cn(-c2cc(NC(=O)c3ccc(C)c(Nc4nccc(-c5cnccn5)n4)c3)cc(C(F)(F)F)c2)cn1 [Radotinib] a recorded thermal shift delta Tm greater than or equal to 0.5 °C?
1

Subsequent entry: "C=CC(=O)Nc1cccc(Oc2nc(Nc3ccc(N4CCN(C)CC4)cc3)ncc2Cl)c1"
1

Subsequent entry: "CC(=O)c1c(C)c2cnc(Nc3ccc(N4CCNCC4)cn3)nc2n(C2CCCC2)c1=O"
-1

Subsequent entry: "COc1ccc(-c2cc3c(C)nc(N)nc3n([C@H]3CC[C@H](OCCO)CC3)c2=O)cn1"
1

Subsequent entry: "Cn1ncc(Cl)c1-c1cc(C(=O)N[C@H](CN)Cc2ccc(F)c(F)c2)oc1Cl"
1

Subsequent entry: "CCn1c2ccccc2c2cc(Nc3ccnc(NCCCN4CCOCC4)n3)ccc21"
-1

Subsequent entry: "N#Cc1c(O)c2c(-c3ccc(-c4ccccc4O)cc3)csc2[nH]c1=O"
1

Subsequent entry: CNC(=O)c1cc(COc2nnc(Nc3ccc(Cl)cc3)c3ccoc23)ccn1 [Telatinib]
-1

Subsequent entry: "CO[C@@H](C)Cn1c(=O)n(C)c2cnc3ccc(-c4cncc(C(C)(C)O)c4)cc3c21"
1

Subsequent entry: "CCN(CC)CCCCNc1ncc2cc(-c3cc(OC)cc(OC)c3)c(NC(=O)NC(C)(C)C)nc2n1"
1

Subsequent entry: c1nc2c(NC3CCCCC3)nc(Nc3ccc(N4CCOCC4)cc3)nc2[nH]1 [Reversine]
-1

Subsequent entry: COc1cc2c(c(OC)c1OC)-c1c(cc3c(c1OC)OCO3)CC(C)C(C)C2 (stereo not drawn) [Schisandrin B (Sch B)]
-1

Subsequent entry: "CC(C)(C)NC(=O)c1cncn1C1CCN(c2ccc(-c3nnc(C(F)(F)F)o3)cn2)CC1"
-1

Subsequent entry: "C=CC(=O)Nc1ccc2ncnc(Nc3ccc(OCc4cccc(F)c4)c(Cl)c3)c2c1"
1

Subsequent entry: "CNC(=O)c1ccccc1Nc1cc(Nc2ccc(N3CCOCC3)cc2OC)ncc1C(F)(F)F"
1

Subsequent entry: Oc1cc(O)cc(/C=C/c2ccc(O)c(O)c2)c1 [Piceatannol]
1

----------
- Tested on: LOC_OS05G43570-cb004
- PROCEDURE TEXT: thermal shift delta Tm vs DMSO control; higher = stronger stabilization (binding)
- EXPERIMENTAL CONDITIONS: 12.5 µM; protein concentration 2 µM
Think of 0.5 °C as a floor: if thermal shift delta Tm stands on it or above, it is y; beneath it, n.

Has "Cn1c(=O)c(F)c(Nc2ccc(I)cc2F)c2c(=O)n(C[C@@H](O)CO)cnc21" a recorded thermal shift delta Tm greater than or equal to 0.5 °C?
y

Subsequent entry: "COc1ccc(CC(=O)Nc2nc3c(s2)CCc2ccccc2-3)cc1OC"
n

Subsequent entry: "Nc1nccc(Oc2ccc(NC(=O)c3c[nH]cc(-c4ccc(F)cc4)c3=O)cc2F)c1Cl"
y

Subsequent entry: "COc1cc(OC)cc(-c2cc3cnc(N)nc3nc2NC(=O)NC(C)(C)C)c1"
n

Subsequent entry: "NCC(=O)Nc1ccc(-n2nc(C(F)(F)F)cc2-c2ccc3c(ccc4ccccc43)c2)cc1"
n

Subsequent entry: O=C(Nc1nc2cccc(-c3ccc(CN4CCS(=O)(=O)CC4)cc3)n2n1)C1CC1 [Filgotinib (GLPG0634)]
n

Subsequent entry: "COc1cc2ncnc(Nc3ccc(O)c(Br)c3)c2cc1OC"
n

Subsequent entry: "Cc1cc(F)c(Nc2ncnc3cc(OCc4ccccc4)ccc23)cc1O"
y

Subsequent entry: CN1CCC(CNc2ccc3ncc(-c4cccc(OC(F)(F)F)c4)n3n2)CC1 [SGI-1776 free base]
n
